# assay target: Tyrosine-protein kinase SYK (Homo sapiens)
# cond: at 1 µM
# Description: GSK_PKIS: SYK mean inhibition at 1 uM [Nanosyn]
endpoint: inhibition (%)

{"columns": ["smiles text", "endpoint", "reported value"],
 "data": [
  ["COc1ccc(-c2coc3ncnc(N)c23)cc1", "inhibition", -0.96],
  ["CCCN1CCC(Oc2cc(Nc3nc(Nc4cccc(F)c4C(N)=O)c4cc[nH]c4n3)c(OC)cc2Cl)CC1", "inhibition", 2.76],
  ["COc1cc2ncn(-c3cc(OCc4ccccc4C(F)(F)F)c(C(N)=O)s3)c2cc1OC", "inhibition", -7.75],
  ["CCc1cccc(NC(=O)Nc2ccc(Oc3ccc4nc(NC(=O)OC)[nH]c4c3)cc2)c1", "inhibition", -0.99],
  ["CCn1c(-c2nonc2N)nc2cncc(C(=O)N3CC[C@H](N)C3)c21", "inhibition", 1.83]
]}

----------
# assay target: Cytoplasmic tyrosine-protein kinase BMX (Homo sapiens)
# cond: at 0.1 µM
# Description: GSK_PKIS: BMX mean inhibition at 0.1 uM [Nanosyn]
In this section we review reported inhibition values for a set of compounds.

{"columns": ["smiles text", "assay target", "inhibition / %"],
 "data": [
  ["NC(=O)c1cccc(Nc2nccc(Nc3cccc4[nH]ncc34)n2)c1", "Cytoplasmic tyrosine-protein kinase BMX (Homo sapiens)", 21.6],
  ["Fc1cccc(COc2ccc(Nc3ncnc4cc(-c5ccc[nH]5)sc34)cc2Cl)c1", "Cytoplasmic tyrosine-protein kinase BMX (Homo sapiens)", 2.13],
  ["CCCN1CCC=C(c2ccc(Nc3nc(Nc4ccccc4C(N)=O)c4cc[nH]c4n3)c(C)c2)C1", "Cytoplasmic tyrosine-protein kinase BMX (Homo sapiens)", 3.95],
  ["CS(=O)(=O)CCNCc1ccc(-c2ccc3ncnc(Nc4ccc(OCc5ccccc5)c(Cl)c4)c3c2)o1", "Cytoplasmic tyrosine-protein kinase BMX (Homo sapiens)", 0.69],
  ["COC(=O)Nc1nc2cc(Oc3cccc(NC(=O)Nc4cc(C(F)(F)F)ccc4F)c3)ccc2[nH]1", "Cytoplasmic tyrosine-protein kinase BMX (Homo sapiens)", 1.84],
  ["NS(=O)(=O)c1ccc(N/N=C2\\C(=O)Nc3ccc(C(=O)NCCc4c[nH]cn4)cc32)cc1", "Cytoplasmic tyrosine-protein kinase BMX (Homo sapiens)", -1.78],
  ["Cc1ccc(C(=O)NC2CCCCC2)cc1-c1ccc(C(=O)NCC2CC2)cc1", "Cytoplasmic tyrosine-protein kinase BMX (Homo sapiens)", 2.45],
  ["NCc1ccc(-c2nc(-c3ccc(Cl)c(O)c3)c(-c3ccncc3)[nH]2)cc1", "Cytoplasmic tyrosine-protein kinase BMX (Homo sapiens)", 12.4],
  ["CCn1c(-c2nonc2N)nc2c(N3CCCC3)nccc21", "Cytoplasmic tyrosine-protein kinase BMX (Homo sapiens)", -2.04]
]}

----------
This listing pairs molecules with measured inhibition.
# assay target: Receptor-type tyrosine-protein kinase FLT3 (Homo sapiens) (UniProt P36888);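 further: mean inhibition value from the GSK PKIS kinase screening set, with the assay run by Nanosyn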
# Sequence (P36888 whole entry): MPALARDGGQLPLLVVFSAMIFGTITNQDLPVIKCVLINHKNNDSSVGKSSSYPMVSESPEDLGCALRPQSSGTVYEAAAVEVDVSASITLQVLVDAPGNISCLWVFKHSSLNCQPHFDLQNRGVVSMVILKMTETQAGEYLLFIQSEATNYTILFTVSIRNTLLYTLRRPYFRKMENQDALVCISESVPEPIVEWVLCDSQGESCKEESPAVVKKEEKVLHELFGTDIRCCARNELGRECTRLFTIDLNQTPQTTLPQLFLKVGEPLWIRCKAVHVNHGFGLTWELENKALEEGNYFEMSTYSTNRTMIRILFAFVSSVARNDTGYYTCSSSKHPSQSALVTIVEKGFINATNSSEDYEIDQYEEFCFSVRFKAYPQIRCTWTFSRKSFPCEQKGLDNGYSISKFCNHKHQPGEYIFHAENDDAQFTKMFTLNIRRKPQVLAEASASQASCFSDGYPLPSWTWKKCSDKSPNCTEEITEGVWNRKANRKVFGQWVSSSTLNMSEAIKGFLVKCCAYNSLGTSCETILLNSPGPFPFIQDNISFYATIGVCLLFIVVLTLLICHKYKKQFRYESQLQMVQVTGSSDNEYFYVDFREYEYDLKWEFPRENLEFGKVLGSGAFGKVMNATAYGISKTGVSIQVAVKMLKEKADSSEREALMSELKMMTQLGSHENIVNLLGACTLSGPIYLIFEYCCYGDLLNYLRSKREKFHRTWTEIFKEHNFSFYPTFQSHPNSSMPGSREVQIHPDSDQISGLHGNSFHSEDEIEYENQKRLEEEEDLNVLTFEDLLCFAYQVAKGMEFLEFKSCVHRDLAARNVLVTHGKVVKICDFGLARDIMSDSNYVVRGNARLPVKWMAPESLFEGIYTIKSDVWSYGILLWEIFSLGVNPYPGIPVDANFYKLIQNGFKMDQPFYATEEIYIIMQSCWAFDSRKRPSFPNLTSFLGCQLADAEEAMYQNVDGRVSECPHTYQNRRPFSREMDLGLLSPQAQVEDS
# cond: at 0.1 µM
endpoint: inhibition

{"columns": ["smiles text", "reported value"],
 "data": [
  ["CCn1c(-c2nonc2N)nc2cncc(C(=O)N3CCNCC3)c21", "5.99%"],
  ["N#Cc1c(NC(=O)c2cccc3ccccc23)sc2c1CCCC2", "2.28%"],
  ["COc1cc(C=NNc2ncnc3c2cnn3-c2ccccc2)ccc1O", "15.6%"],
  ["O=C1NC(=O)C(N2CCc3ccccc32)=C1c1ccc(Cl)cc1", "2.06%"],
  ["COc1cccc(-n2ncc3c(N/N=C/c4cccc(F)c4)ncnc32)c1", "0.44%"]
]}

----------
# Test system: Mast/stem cell growth factor receptor Kit (Homo sapiens), P10721 [T670I]
# Sequence (P10721 whole entry T670I): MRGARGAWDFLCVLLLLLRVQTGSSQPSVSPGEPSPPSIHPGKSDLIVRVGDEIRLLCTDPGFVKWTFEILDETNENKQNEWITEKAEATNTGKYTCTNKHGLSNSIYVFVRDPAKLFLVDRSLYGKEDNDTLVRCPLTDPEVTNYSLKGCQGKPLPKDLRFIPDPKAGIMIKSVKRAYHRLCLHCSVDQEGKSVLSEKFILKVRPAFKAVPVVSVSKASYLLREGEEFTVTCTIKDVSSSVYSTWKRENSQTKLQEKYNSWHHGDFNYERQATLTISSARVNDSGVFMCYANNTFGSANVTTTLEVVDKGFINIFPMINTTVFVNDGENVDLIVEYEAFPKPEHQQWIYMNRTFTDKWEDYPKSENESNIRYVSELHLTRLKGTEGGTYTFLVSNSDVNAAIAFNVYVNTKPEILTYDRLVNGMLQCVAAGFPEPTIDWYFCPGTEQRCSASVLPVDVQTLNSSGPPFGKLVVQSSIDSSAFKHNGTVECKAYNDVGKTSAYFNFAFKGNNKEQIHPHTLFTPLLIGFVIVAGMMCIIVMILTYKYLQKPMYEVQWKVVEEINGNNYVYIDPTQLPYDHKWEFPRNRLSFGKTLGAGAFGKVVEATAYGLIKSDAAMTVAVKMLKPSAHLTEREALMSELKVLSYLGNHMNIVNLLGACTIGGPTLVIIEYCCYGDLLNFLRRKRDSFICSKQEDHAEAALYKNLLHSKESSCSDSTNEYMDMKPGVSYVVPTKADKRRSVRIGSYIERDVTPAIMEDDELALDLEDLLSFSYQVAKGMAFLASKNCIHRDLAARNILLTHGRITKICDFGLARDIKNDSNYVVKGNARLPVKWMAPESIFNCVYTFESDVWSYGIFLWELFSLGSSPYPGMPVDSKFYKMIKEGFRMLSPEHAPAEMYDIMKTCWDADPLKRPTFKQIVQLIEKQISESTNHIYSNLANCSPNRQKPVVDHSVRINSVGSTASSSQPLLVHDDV
# cond: at 1 µM
endpoint: inhibition (%)

{"columns": ["molecule", "reported value"],
 "data": [
  ["Cc1cc(O)cc(C)c1/C=C/c1cncc(-c2nn[nH]n2)c1", 3.66],
  ["CC1=C(C(=O)Nc2ccc3[nH]ncc3c2)C(c2ccc3ccccc3c2)CC(=O)N1 (stereo unspecified)", 2.53],
  ["CNC(=O)c1cncc(/C=C/c2c(Cl)cccc2Cl)c1", 0.46],
  ["COc1cc2ncn(-c3cc(OCc4ccccc4C(F)(F)F)c(C(N)=O)s3)c2cc1OC", 9.7],
  ["Cc1nnc(-c2ccc(C)c(-c3ccc(C(=O)Nc4cccc(C#N)c4)cc3)c2)o1", 1.69],
  ["O=C1NC(=O)C(c2ccccc2Cl)=C1Nc1cccc(O)c1", -0.04],
  ["O=C1NC(=O)C(c2cccc(Cl)c2)=C1Nc1ccc(O)c(Cl)c1", -2.14],
  ["COc1cc2ncn(-c3cc(OCc4ccccc4Cl)c(C(N)=O)s3)c2cc1OC", 8.11],
  ["COc1cc(C=NNc2ncnc3c2cnn3-c2ccccc2)ccc1O", 37.6],
  ["COc1ccc(COc2ccc(Cc3cnc(N)nc3N)cc2OC)cc1", -3.14],
  ["COc1cc(C)c(NC(=O)CN(C)C)cc1Nc1nc(Nc2cccc(F)c2C(N)=O)c2cc[nH]c2n1", 0.56]
]}

----------
# assay target: Casein kinase I isoform gamma-2 (Homo sapiens) (UniProt P78368);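 further: values are mean inhibition figures reported as part of the GSK PKIS dataset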
# Sequence (P78368 whole entry, looked up, canonical isoform): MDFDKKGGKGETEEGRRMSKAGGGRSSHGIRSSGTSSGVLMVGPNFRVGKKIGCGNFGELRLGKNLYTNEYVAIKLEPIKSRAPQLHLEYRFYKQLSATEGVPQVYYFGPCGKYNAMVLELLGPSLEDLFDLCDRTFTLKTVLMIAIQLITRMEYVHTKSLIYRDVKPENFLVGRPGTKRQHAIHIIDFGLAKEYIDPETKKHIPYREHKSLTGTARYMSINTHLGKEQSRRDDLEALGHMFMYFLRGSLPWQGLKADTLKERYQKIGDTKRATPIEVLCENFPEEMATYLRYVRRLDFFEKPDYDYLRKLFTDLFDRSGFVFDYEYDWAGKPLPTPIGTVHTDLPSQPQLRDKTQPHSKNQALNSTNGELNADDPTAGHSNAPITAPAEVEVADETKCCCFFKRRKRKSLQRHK
# cond: at 0.1 µM
inhibition: recorded values

{"columns": ["compound", "assay target", "inhibition (%)"],
 "data": [
  ["Cc1nn(C)c2cc(N(C)c3ccnc(Nc4cccc(S(N)(=O)=O)c4)n3)ccc12", "Casein kinase I isoform gamma-2 (Homo sapiens) (UniProt P78368)", 1.72],
  ["CCn1c(-c2nonc2N)nc2cncc(C(=O)N3CC[C@H](N)C3)c21", "Casein kinase I isoform gamma-2 (Homo sapiens) (UniProt P78368)", 3.12],
  ["COc1cc2c(cc1Nc1nc(N3CCc4ccccc43)c3cc[nH]c3n1)N(C(=O)CN(C)C)CC2", "Casein kinase I isoform gamma-2 (Homo sapiens) (UniProt P78368)", 0.72],
  ["CCCN1CCC(Oc2cc(Nc3nc(Nc4cccc(F)c4C(N)=O)c4cc[nH]c4n3)c(OC)cc2Cl)CC1", "Casein kinase I isoform gamma-2 (Homo sapiens) (UniProt P78368)", -0.58],
  ["COC(=O)Nc1nc2cc(Oc3ccc(NC(=O)Nc4cccc(C(=O)O)c4)cc3)ccc2[nH]1", "Casein kinase I isoform gamma-2 (Homo sapiens) (UniProt P78368)", -2.21],
  ["COc1cc(C)c(NC(=O)CN(C)C)cc1Nc1nc(Nc2cccc(F)c2C(N)=O)c2cc[nH]c2n1", "Casein kinase I isoform gamma-2 (Homo sapiens) (UniProt P78368)", 1.61],
  ["O=C1Nc2ccc(C(=O)c3ccco3)cc2C1=Cc1cc(Cl)c(O)c(Cl)c1", "Casein kinase I isoform gamma-2 (Homo sapiens) (UniProt P78368)", 1.66],
  ["COc1ccc2cc(-c3c(-c4ccncc4)nc(-c4ccc([S+](C)[O-])cc4)n3C)ccc2c1 (stereo not given)", "Casein kinase I isoform gamma-2 (Homo sapiens) (UniProt P78368)", 2],
  ["Cc1ccc(C(=O)NC2CCCCC2)cc1-c1ccc(C(=O)NCC2CC2)cc1", "Casein kinase I isoform gamma-2 (Homo sapiens) (UniProt P78368)", 0.35],
  ["Cc1ccc(NC(=O)c2ccnc(N3CCCC3)c2)cc1-c1ccc(C(=O)NCC2CC2)cc1", "Casein kinase I isoform gamma-2 (Homo sapiens) (UniProt P78368)", -0.87]
]}

----------
Here the recorded inhibition is given for each entry.
# Tested on: Epidermal growth factor receptor (Homo sapiens), P00533 [L858R]
# Sequence (P00533 whole entry L858R): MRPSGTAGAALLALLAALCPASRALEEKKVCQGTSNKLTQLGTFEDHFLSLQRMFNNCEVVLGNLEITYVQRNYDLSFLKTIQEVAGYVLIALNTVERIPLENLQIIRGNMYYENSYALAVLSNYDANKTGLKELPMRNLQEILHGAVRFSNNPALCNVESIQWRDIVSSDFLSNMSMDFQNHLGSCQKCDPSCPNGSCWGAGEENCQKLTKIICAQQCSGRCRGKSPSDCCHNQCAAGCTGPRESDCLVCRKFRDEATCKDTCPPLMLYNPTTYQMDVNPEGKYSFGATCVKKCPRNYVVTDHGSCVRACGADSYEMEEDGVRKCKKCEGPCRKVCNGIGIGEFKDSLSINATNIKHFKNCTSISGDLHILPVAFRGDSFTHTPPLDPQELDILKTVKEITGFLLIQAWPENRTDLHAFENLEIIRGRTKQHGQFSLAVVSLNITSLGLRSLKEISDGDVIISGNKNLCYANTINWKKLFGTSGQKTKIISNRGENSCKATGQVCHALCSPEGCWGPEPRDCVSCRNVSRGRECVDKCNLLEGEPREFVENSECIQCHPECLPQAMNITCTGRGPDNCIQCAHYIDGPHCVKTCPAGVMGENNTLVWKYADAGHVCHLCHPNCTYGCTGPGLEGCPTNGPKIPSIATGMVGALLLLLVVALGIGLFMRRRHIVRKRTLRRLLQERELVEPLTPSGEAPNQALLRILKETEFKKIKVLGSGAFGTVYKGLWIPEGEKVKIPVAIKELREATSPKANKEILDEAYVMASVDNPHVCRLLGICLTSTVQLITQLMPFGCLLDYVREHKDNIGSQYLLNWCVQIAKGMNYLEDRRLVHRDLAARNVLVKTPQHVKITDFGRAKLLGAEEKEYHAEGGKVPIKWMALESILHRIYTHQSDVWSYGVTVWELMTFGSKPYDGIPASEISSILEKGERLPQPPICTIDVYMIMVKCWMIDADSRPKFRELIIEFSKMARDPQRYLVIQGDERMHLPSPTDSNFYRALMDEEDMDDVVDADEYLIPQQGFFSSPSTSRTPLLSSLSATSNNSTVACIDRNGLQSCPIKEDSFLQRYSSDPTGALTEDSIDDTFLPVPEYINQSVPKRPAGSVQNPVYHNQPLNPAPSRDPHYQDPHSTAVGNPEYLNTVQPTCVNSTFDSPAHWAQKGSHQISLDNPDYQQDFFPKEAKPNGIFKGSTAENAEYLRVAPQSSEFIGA
# cond: at 1 µM

{"columns": ["compound", "inhibition / %"],
 "data": [
  ["Cc1cccc(-c2n[nH]cc2-c2ccc3ncccc3n2)n1", -1.71],
  ["CS(=O)(=O)CCNCc1ccc(-c2ccc3ncnc(Nc4ccc(OCc5cccc(F)c5)c(C(F)(F)F)c4)c3c2)o1", 46.2],
  ["CS(=O)(=O)CCN(CC#N)Cc1ccc(-c2ccc3ncnc(Nc4ccc(OCc5cccc(F)c5)c(Cl)c4)c3c2)o1", 83.6],
  ["CC1=C(C(=O)Nc2ccc3[nH]ncc3c2)C(c2ccc(F)cc2)NC(=O)N1 (stereo unspecified)", 4.77],
  ["CCn1c(-c2nonc2N)nc2cncc(C(=O)N3CCNCC3)c21", 3.98],
  ["COc1ccc2cc(-c3c(-c4ccncc4)nc(-c4ccc([S+](C)[O-])cc4)n3C)ccc2c1 (stereo unspecified)", 0.76],
  ["CCn1c(-c2nonc2N)nc2cnc(Oc3cccc(NC(=O)c4ccc(OCCN5CCOCC5)cc4)c3)cc21", 2.23],
  ["O=C1NC(=O)C(c2ccc(Cl)cc2)=C1Nc1ccc(Cl)c(C(=O)O)c1", 6.41],
  ["COc1cc2c(cc1Nc1nc(N3CCc4ccccc43)c3cc[nH]c3n1)N(C(=O)CN(C)C)CC2", 2.18],
  ["O=C(Nc1n[nH]c2nc(-c3ccco3)c(Br)cc12)C1CC1", 0.54],
  ["Cc1nn(C)c2cc(N(C)c3ccnc(Nc4cccc(S(N)(=O)=O)c4)n3)ccc12", 16],
  ["COc1cc(C)c(NC(=O)CN(C)C)cc1Nc1nc(Nc2cccc(F)c2C(N)=O)c2cc[nH]c2n1", 6.19],
  ["NS(=O)(=O)c1cccc(-c2ccc3c(NC(=O)C4CC4)n[nH]c3c2)c1", -2.32],
  ["COC(=O)Nc1nc2cc(Oc3ccc(NC(=O)Nc4cccc(C(=O)O)c4)cc3)ccc2[nH]1", 2.26],
  ["O=C1NC(=O)C(c2cccc(Cl)c2)=C1Nc1ccc(O)c(Cl)c1", -0.47],
  ["COc1ccc(-c2ccncc2)cc1C(N)=O", 4.73],
  ["c1cnn2ncc(-c3ccnc(Nc4ccc5c(c4)OCCO5)n3)c2c1", 11],
  ["COc1cc2ncn(-c3cc(O[C@@H](C)c4ccccc4Cl)c(C(N)=O)s3)c2cc1OC", 26.9],
  ["CCn1c(-c2nonc2N)nc2c(N3CCCC3)nccc21", -1.9],
  ["NC(=O)c1cccc(Nc2nccc(Nc3cccc4[nH]ncc34)n2)c1", 70.1],
  ["COc1cccc(-n2ncc3c(N/N=C/c4cccc(F)c4)ncnc32)c1", 37.9],
  ["COc1ccc(-c2nn3ncccc3c2-c2ccnc(Nc3ccc(Cl)c(C(F)(F)F)c3)n2)cc1", 14.3],
  ["Nc1ncnc2occ(-c3ccc(NC(=O)Nc4cc(C(F)(F)F)cc(C(F)(F)F)c4)cc3)c12", -2.77],
  ["Nc1nc(-c2ccc3c(c2)C(=Cc2cc(Br)c(O)c(Br)c2)C(=O)N3)cs1", 8.58],
  ["CCc1cccc(NC(=O)Nc2ccc(Oc3ccc4nc(NC(=O)OC)[nH]c4c3)cc2)c1", 5.42],
  ["CCCN1CCC=C(c2ccc(Nc3nc(Nc4ccccc4C(N)=O)c4cc[nH]c4n3)c(C)c2)C1", 9.35],
  ["COc1cc2ncn(-c3cc(O[C@H](C)c4ccccc4Cl)c(C(N)=O)s3)c2cc1OC", 14.9],
  ["CN1CCC(C(=O)Nc2n[nH]c3nnc(-c4ccccc4)cc23)CC1", 3.79],
  ["COc1cc2ncn(-c3cc(OCc4ccccc4Cl)c(C(N)=O)s3)c2cc1OC", 13.4],
  ["CC1=C(C(=O)Nc2ccc3[nH]ncc3c2)C(c2ccc(Cl)c(Cl)c2)CC(=O)N1 (stereo unspecified)", 5.4],
  ["O=C1NC(=O)C(c2ccccc2Cl)=C1Nc1cccc(O)c1", 3.71]
]}
